PROTOCOL_DETAILS: Oral bioavailability in rat
Type: ADME, organism-based
ASSAY_CONDITIONS: in vivo
RECORDED_ENDPOINT: bioavailability (%)
Use % as the unit, but write only the number.

bioavailability measured on Cc1c2c(nn1-c1nnc(-c3ccc(OC(C)C)c(Cl)c3)s1)CCN(CCC(=O)O)C2 = 52

* * *

PROTOCOL_DETAILS: Fraction unbound in CD1 mouse blood after 4 hrs by LC-MS/MS analysis
Type: ADME, tissue-based
RECORDED_ENDPOINT: fraction unbound at 4 h
Enter a number only.

fraction unbound at 4 h measured on Cc1c2c(nn1-c1nnc(-c3ccc(OC(C)C)c(Cl)c3)s1)CCN(CCC(=O)O)C2 = 0.011
